- TARGET: EPHB2 (UniProt P29323)
- Sequence (P29323 whole entry, looked up): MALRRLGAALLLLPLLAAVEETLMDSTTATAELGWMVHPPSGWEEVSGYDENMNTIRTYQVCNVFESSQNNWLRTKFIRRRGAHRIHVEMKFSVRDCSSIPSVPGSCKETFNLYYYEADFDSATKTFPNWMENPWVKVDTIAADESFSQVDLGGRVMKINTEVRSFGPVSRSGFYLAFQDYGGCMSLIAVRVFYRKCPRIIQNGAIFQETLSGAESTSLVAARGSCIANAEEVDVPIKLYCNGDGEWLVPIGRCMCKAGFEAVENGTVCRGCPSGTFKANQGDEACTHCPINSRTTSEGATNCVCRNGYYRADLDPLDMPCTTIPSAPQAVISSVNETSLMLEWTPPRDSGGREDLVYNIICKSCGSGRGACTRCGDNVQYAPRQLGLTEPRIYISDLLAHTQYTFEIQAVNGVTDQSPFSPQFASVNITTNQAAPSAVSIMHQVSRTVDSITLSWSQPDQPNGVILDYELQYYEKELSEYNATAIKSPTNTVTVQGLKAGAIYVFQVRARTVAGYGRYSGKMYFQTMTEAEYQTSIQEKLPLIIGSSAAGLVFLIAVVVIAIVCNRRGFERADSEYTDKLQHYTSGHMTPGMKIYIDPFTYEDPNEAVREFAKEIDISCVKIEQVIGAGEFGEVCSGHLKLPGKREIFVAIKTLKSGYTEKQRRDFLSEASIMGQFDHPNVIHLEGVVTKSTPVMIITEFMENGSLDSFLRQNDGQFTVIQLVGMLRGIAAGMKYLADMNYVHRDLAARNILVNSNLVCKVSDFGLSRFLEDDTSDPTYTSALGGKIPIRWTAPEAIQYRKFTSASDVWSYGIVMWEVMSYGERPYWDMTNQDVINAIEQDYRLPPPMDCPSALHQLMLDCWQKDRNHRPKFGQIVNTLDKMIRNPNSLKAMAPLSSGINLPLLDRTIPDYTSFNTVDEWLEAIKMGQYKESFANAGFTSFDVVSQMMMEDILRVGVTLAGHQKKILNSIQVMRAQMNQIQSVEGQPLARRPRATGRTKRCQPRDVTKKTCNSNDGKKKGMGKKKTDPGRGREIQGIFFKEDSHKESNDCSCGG
- ASSAY INFO: phosphorylation enrichment, bacterial display (enrichment ratio); higher = better substrate or ligand; peptides without Tyr show the background;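 further: 11-residue human phosphosite peptides and single-mutation variants displayed on the E. coli surface, counted by deep sequencing, each peptide's frequency after selection divided by its frequency in the unselected input library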;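 further: frequency after pTyr selection over input frequency; kinase dosed for 20-30% of maximal phosphorylation in three min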
Outcome label depends on phosphorylation enrichment relative to 0.6: at/above gives yes, below gives no.

RESIDUE CODES | CATEGORY LABEL
NDQANYLLNTD [ADA_Y290_S291L] | no

Has GTATTYLCGVK [ALPL_Y117_A116T] a recorded phosphorylation enrichment greater than or equal to 0.6? yes

Has EHVMPYAANKN [GRIN2A_Y1431] a recorded phosphorylation enrichment greater than or equal to 0.6? no

Has FSGLAYTMERS [GLUD1_Y512_H507Y_YF] a recorded phosphorylation enrichment greater than or equal to 0.6? no

Has GKAFIYASHIV [ZNF573_Y229] a recorded phosphorylation enrichment greater than or equal to 0.6? no

Has ICTVDYLLRLQ [RYR1_Y3921] a recorded phosphorylation enrichment greater than or equal to 0.6? yes

Has PIDLFYLMDLS [ITGB2_Y131_YF] a recorded phosphorylation enrichment greater than or equal to 0.6? no

The reported numbers originate from the supplement of paper PMC10065799.
